system: Candida albicans; test: Growth inhibition of Candida albicans ATCC 90028 at 32 ug/ml after 24 hrs by OD530 light-scattering microspectrophotometric method; details: ATCC 90028, 24 h, read-out: GI
Listing: inhibition of growth at 32 µg/mL of selected molecules
The response must be a number in % with no trailing unit.

Below, each entry is followed by its recorded inhibition of growth at 32 µg/mL result.
# chemSmiles, reported
records = [
    ("O=C(OCc1ccccc1)N1CCCN1C(=O)[C@@H]1CCCN1C(=O)N1CCCN1C(=O)[C@@H]1CCCN1C(=O)N1CCCN1C(=O)[C@@H]1CCCN1C(=O)N1CCCN1C(=O)[C@@H]1CCCN1C(=O)N1CCCN1C(=O)[C@@H]1CCCN1C(=O)N1CCCN1C(=O)[C@@H]1CCCN1C(=O)N1CCCN1C(=O)[C@@H]1CCCN1C(=O)N1CCCN1C(=O)[C@@H]1CCCN1", 4.07),
    ("CC(=O)N1CCCN1C(=O)N1CCC[C@H]1C(=O)N1CCCN1C(=O)N1CCC[C@H]1C(=O)N1CCCN1C(=O)N1CCC[C@H]1C(=O)N1CCCN1C(=O)N1CCC[C@H]1C(=O)N1CCCN1C(=O)N1CCC[C@H]1C(=O)N1CCCN1C(=O)N1CCC[C@H]1C(=O)N1CCCN1C(=O)N1CCC[C@H]1C(=O)N1CCCN1C(=O)N1CCC[C@H]1C(=O)NCCO", 2.45),
    ("CC(C)(C)OC(=O)[C@@H]1CCCN1C(=O)N1CCCN1C(=O)[C@@H]1CCCN1C(=O)N1CCCN1C(=O)[C@@H]1CCCN1C(=O)N1CCCN1C(=O)[C@@H]1CCCN1C(=O)N1CCCN1C(=O)OCc1ccccc1", 4.13),
]

// query inhibition of growth at 32 µg/mL value for entry O=C(NCCO)[C@@H]1CCCN1C(=O)N1CCCN1C(=O)[C@@H]1CCCN1C(=O)N1CCCN1C(=O)[C@@H]1CCCN1C(=O)N1CCCN1C(=O)[C@@H]1CCCN1C(=O)N1CCCN1C(=O)[C@@H]1CCCN1C(=O)N1CCCN1C(=O)[C@@H]1CCCN1C(=O)N1CCCN1C(=O)[C@@H]1CCCN1C(=O)N1CCCN1C(=O)[C@@H]1CCCN1C(=O)N1CCCN1C(=O)OCc1ccccc1
4.99

// query inhibition of growth at 32 µg/mL value for entry CC(C)(C)OC(=O)[C@@H]1CCCN1C(=O)N1CCCN1C(=O)[C@@H]1CCCN1C(=O)N1CCCN1C(=O)[C@@H]1CCCN1C(=O)N1CCCN1C(=O)[C@@H]1CCCN1C(=O)N1CCCN1C(=O)[C@@H]1CCCN1C(=O)N1CCCN1C(=O)[C@@H]1CCCN1C(=O)N1CCCN1C(=O)[C@@H]1CCCN1C(=O)N1CCCN1C(=O)[C@@H]1CCCN1C(=O)N1CCCN1C(=O)OCc1ccccc1
5.75

// query inhibition of growth at 32 µg/mL value for entry O=C(O)[C@@H]1CCCN1C(=O)N1CCCN1C(=O)[C@@H]1CCCN1C(=O)N1CCCN1C(=O)[C@@H]1CCCN1C(=O)N1CCCN1C(=O)[C@@H]1CCCN1C(=O)N1CCCN1C(=O)OCc1ccccc1
3.59

// query inhibition of growth at 32 µg/mL value for entry Cl.O=C(OCc1ccccc1)N1CCCN1C(=O)[C@@H]1CCCN1C(=O)N1CCCN1C(=O)[C@@H]1CCCN1C(=O)N1CCCN1C(=O)[C@@H]1CCCN1C(=O)N1CCCN1C(=O)[C@@H]1CCCN1
4.48

// query inhibition of growth at 32 µg/mL value for entry CC(C)(C)OC(=O)N1CCC[C@H]1C(=O)N1CCCN1C(=O)N1CCC[C@H]1C(=O)N1CCCN1C(=O)N1CCC[C@H]1C(=O)N1CCCN1C(=O)N1CCC[C@H]1C(=O)N1CCCN1
3.56
